- Tested on: MUTZ-3 cells
- run description: GARD random forest model for prediction of CLP categories (52 transcripts, Example A)
- assay conditions: Suppl. Table 1, separate replicates in the test set
Structures can show the parent of a compound that is named as a salt.
For each entry below, report its predicted CLP value.
Give just the number in A; leave the unit off.

Q. Item O=CCCCC=O [glutaraldehyde] has what recorded predicted CLP?
A. 1

Q. Look up predicted CLP for this molecule: CCOC(=O)/C=C\C(=O)OCC [diethyl maleate]
A. 1

Q. Consider the molecule CCCOC(=O)c1cc(O)c(O)c(O)c1 [propyl gallate] and give its measured predicted CLP.
A. 1

----------
- Test system: MUTZ-3 cells
- run description: Cytotoxicity / viability by flow cytometry (propidium iodide)
- assay conditions: Table 1, 24 hours exposure
readout name: cytotox

Some solved cases for reference:
# compound, reported result
records = [
    ("C=CC(C)(O)CCC=C(C)C (stereo not drawn)", "no"),
    ("CCCCCCCCCCCCCC(=O)OC(C)C [isopropyl myristate]", "no"),
    ("CC(C)=CCCC(C)=CC=O", "yes"),
    ("CCOC(=O)c1ccc(N)cc1", "no"),
    ("CCCOC(=O)c1cc(O)c(O)c(O)c1 [propyl gallate]", "yes"),
    ("Oc1c(Cl)c(Cl)c(Cl)c(Cl)c1Cl", "no"),
    ("CC(C)(O)CCCC1=CCC(C=O)CC1 (stereo not drawn)", "yes"),
    ("O=C(OCc1ccccc1)c1ccccc1 [benzyl benzoate]", "yes"),
]

Q. Could you share which cytotox value was measured for "CCCCC/C(=C/c1ccccc1)CO" ?
A. yes

Q. Given "O=CCCCC=O" , state its recorded cytotox.
A. yes

Q. Name the reported cytotox value associated with the compound "CN(C)CCCN1c2ccccc2Sc2ccc(Cl)cc21"
A. yes

Q. # query: cytotox of entry "Cc1cccc(O)c1O"
A. yes

From: patent EP3417074B1
